Reported pKi is given for each of the following molecules.
biological target: Estrogen receptor beta (Homo sapiens)
Sequence (Q92731 whole entry): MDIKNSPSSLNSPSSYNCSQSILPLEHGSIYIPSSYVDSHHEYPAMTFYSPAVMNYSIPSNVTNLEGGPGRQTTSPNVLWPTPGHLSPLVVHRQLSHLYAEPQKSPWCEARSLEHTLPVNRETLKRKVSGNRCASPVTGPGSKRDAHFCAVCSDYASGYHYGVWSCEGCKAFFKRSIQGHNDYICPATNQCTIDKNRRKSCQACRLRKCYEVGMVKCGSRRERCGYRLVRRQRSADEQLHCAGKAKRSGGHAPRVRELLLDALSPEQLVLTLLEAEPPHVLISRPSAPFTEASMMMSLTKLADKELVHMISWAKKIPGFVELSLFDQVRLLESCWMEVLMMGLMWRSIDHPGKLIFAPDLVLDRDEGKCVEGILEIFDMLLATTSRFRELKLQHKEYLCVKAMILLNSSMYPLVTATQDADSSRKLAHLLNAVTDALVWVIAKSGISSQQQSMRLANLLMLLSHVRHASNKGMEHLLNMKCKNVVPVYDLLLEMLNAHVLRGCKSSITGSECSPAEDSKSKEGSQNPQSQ
pKi: −log10 of the molar value.
readout: pKi

- mol: "Cl.Oc1ccc2c3c(ccc2c1)-c1cc(F)cc(F)c1O[C@H]3c1ccc(OCCN2CCCCC2)cc1"
  targetOrSystem: "Estrogen receptor beta (Homo sapiens)"
  assayValue: 7.27
- mol: "Cl.Oc1ccc2c3c(ccc2c1)-c1cc(F)cc(F)c1O[C@@H]3c1ccc(OCCN2CCCCC2)cc1"
  targetOrSystem: "Estrogen receptor beta (Homo sapiens)"
  assayValue: 9.30

----------
target: Estrogen receptor (Homo sapiens, UniProt P03372)
Sequence (P03372 whole entry): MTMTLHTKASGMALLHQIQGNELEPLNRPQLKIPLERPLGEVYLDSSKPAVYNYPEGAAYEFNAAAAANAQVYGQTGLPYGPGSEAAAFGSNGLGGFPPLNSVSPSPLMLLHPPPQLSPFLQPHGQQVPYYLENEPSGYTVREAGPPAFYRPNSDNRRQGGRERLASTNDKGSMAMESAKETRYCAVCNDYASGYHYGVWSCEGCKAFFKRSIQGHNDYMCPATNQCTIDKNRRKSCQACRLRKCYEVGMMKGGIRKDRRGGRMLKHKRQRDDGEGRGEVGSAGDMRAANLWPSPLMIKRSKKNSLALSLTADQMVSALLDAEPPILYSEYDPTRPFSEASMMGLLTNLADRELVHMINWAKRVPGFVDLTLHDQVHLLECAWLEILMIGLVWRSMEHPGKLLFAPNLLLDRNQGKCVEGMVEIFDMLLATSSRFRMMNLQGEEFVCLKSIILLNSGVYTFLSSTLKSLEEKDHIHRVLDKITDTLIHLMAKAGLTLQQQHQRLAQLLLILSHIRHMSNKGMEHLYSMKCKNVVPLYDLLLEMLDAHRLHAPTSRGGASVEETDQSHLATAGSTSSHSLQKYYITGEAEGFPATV
readout: Ki (nM)

- mol: "Cl.Oc1ccc2c3c(ccc2c1)-c1cc(F)cc(F)c1O[C@H]3c1ccc(OCCN2CCCCC2)cc1"
  readout: "Ki"
  assayValue: 5.8
